// provenance: patent US12077503B2

This section presents compounds with their documented pest or weed control at 250 g/ha values.
# System: velvetleaf (Abutilon theophrasti)
# Experimental details: Test G Post-Emergence Protocol
# Assay type: in vivo
# Condition info: Abutilon theophrasti, post-emergence, 312 h, 250 g ai/ha, evaluated after 13 days, read-out: damage to plant, Velvetleaf (100=total damage to plant; 0=no damage to plant)
Readout kind: pest or weed control at 250 g/ha (%)

1) CN1C[C@@H](c2ccc(C(F)(F)F)cc2)[C@H](C(=O)Nc2ccccc2C#N)C1=O (racemic) | 40
2) C=Cc1ccc([C@H]2CN(C)C(=O)[C@@H]2C(=O)Nc2ccccc2F)cc1 (racemic) | 0
3) COc1cccc(NC(=O)[C@H]2C(=O)N(C)C[C@@H]2c2ccc(C(F)(F)F)cc2)c1C (racemic) | 0
4) CN1C[C@H](c2ccc(C(F)(F)F)cc2)[C@@H](C(=O)NC2=NOC(C)(C)C2)C1=O (racemic) | 0
5) CN1C[C@@H](c2ccc(C(F)(F)F)cc2)[C@H](C(=O)Nc2nnc(C(F)(F)F)[nH]2)C1=O (racemic) | 0
6) CN1C[C@@H](c2ccc(C(F)(F)F)cc2)[C@H](C(=O)Nc2cnccc2C(F)(F)F)C1=O (racemic) | 30
7) Cc1ccc(NC(=O)[C@@H]2C(=O)N(C)C[C@H]2c2ccc(C(F)(F)F)cc2)c(Cl)c1 (racemic) | 0
8) CN1C[C@@H](c2ccc(C(F)(F)F)cc2)[C@H](C(=O)Nc2ccnc(Cl)c2)C1=O (racemic) | 0
9) CN1C[C@@H](c2ccc(C(F)(F)F)cc2)[C@H](C(=O)Nc2cc(Cl)nc(Cl)c2)C1=O (racemic) | 0

###

This section presents molecules with their documented pest or weed control at 125 g/ha values.
# Tested on: pigweed (Amaranthus retroflexus)
# Experimental details: Test A postemergence
# Format: in vivo
# Condition info: Amaranthus retroflexus, post-emergence, 240 h, 125 g ai/ha, postemergence, visual injury rating after approximately 10 d; read-out: Pigweed plant response rating (0 to 100 scale, 0 no effect, 100 complete control)
Readout kind: pest or weed control at 125 g/ha

1) COc1c(F)ccc([C@H]2CN(C)C(=O)[C@@H]2C(=O)Nc2ccccc2C(F)(F)F)c1Cl | 20%
2) CN1C[C@H](c2cc(F)c(F)c(F)c2)[C@@H](C(=O)Nc2ccccc2S(C)(=O)=O)C1=O | 50%
3) Cc1c(F)ccc([C@H]2CN(C)C(=O)[C@@H]2C(=O)Nc2cccc(F)c2F)c1F | 20%
4) Cc1c(F)ccc([C@H]2CNC(=O)[C@@H]2C(=O)Nc2ccccc2S(C)(=O)=O)c1F | 0%
5) CN1C[C@H](c2cccc(OC(F)(F)C(F)F)c2)[C@@H](C(=O)Nc2ccccc2[S+](C)[O-])C1=O (some centres unmarked) | 50%
6) CCOc1ccc([C@H]2CN(C)C(=O)[C@@H]2C(=O)Nc2cccc(F)c2F)cc1 | 0%
7) CN1C[C@H](c2cccc(C3CC3)c2)[C@@H](C(=O)Nc2cccc(F)c2F)C1=O | 0%
8) CN1C[C@H](c2cc(F)cc(F)c2)[C@@H](C(=O)Nc2ccc(C(F)(F)F)nc2)C1=O | 0%

###

# Tested on: barnyardgrass (Echinochloa crus-galli)
# Experimental details: Test A preemergence
# Type: in vivo
# Condition info: Echinochloa crus-galli, pre-emergence, 240 h, 125 g ai/ha, preemergence; 0 to 100 scale where 0 is no effect and 100 is complete control; approx. 10 d; read-out: Barnyardgrass plant response rating
Readout kind: pest or weed control at 125 g/ha

1) Cc1nc([C@H]2CNC(=O)[C@@H]2C(=O)Nc2cccc(F)c2F)cs1 [Compound 1180] | 20%
2) Cc1cc([C@H]2CN(C)C(=O)[C@@H]2C(=O)Nc2ccccc2S(C)(=O)=O)ccc1Br [Compound 1102] | 90%
3) O=C1NC[C@H](c2ccc(F)c(OC(F)(F)C(F)(F)Br)c2)[C@H]1C(=O)Nc1ccccc1F [Compound 1134] | 30%
4) CC(C)Oc1cc([C@H]2CN(C)C(=O)[C@@H]2C(=O)Nc2ccccc2F)ccc1F [Compound 1074] | 100%
